These data points were gathered from the supplement of paper PMC12455559.

# TEST_METHOD_NOTES: PET hydrolysis, aromatic products released after 48 h (umol product/mg enzyme); higher = more PET depolymerization activity
# CONDITIONS_USED: substrate: cryPow; 40 °C; pH 6.5
Here, each record is paired with measured PET hydrolysis data.

>  <RESIDUE_CODES>
AANPYQRGPAPTAASVAAVTGPFATASVSVPRGNGFGGGVIYYPTDTSQGTFGGLAISPGLNGTWPGIAWLGSRLASQGFIVFGIETNNLNDSPTSRGTQLLAALDYLAQRSSVRSRLDPGRLAVAGHSMGGGGALDAALRRPSLKAAIGNAPYLPSNTLAGNRVPTLIYAMQNDTLVPPSRLTSLYNTIPATTERAYLEITGAGHNYIGQPSTTLARTMIPWLKIFIDNDTRFSQFLCPLADQSGIRQYRSSCPLVPATTRALTAAAG [DP043]

>  <PET hydrolysis>
39

$$$$
>  <RESIDUE_CODES>
QAPTRESLGAQGPYQVAYYSNFPAVQEFTAGTIYFPANKAQTFGAVAISPGFAERQENMSWWGRHLASHGFAVLTLDTNELRDDPAIRAEALMAALRVLSGESEREGSPLRGKIDTNRMAIMGHSMGGGGTLLAANTHSSELKAAIPFTPWQPDGDFSDVTVPTLIIAGEIDRVAPVNDHAWPHYQSLSASNPRLYLEIRGGNHFIANTAT [TEP038]

>  <PET hydrolysis>
< 3

$$$$

I'd like to know its PET hydrolysis. The sequence in question is TAGAEPSGGAPAAGGSGCGDVADPAAQGPLHVQTYSSGLRDGPDYGSQTMHYPTDGAPPYPALVIVPGFMSLESSIADHGPHFASHGIVTLTIGTNSTMDQPPARSEALLDALETIRAEHTRAGGPLEGKLDLSRLGVMGWSMGGGGTLITVDDHPELKAAITLCAWNPGQTYRNNQVPTLLFAGTADTLAGG [TEP195] < 3
